Values were extracted from PubChem BioAssay AID493139.

molecular target: Alkaline phosphatase, germ cell type (Homo sapiens) (UniProt P10696); assay: effect of analogs on PLAP-like activity, SAR follow-up, selectivity assay for mouse IAP activator project, biochemical, human placental-like ALPPL2 isozyme (AID 493139); conditions: purified human placental-like alkaline phosphatase, enzymatic activity
Sequence (P10696 whole entry, looked up): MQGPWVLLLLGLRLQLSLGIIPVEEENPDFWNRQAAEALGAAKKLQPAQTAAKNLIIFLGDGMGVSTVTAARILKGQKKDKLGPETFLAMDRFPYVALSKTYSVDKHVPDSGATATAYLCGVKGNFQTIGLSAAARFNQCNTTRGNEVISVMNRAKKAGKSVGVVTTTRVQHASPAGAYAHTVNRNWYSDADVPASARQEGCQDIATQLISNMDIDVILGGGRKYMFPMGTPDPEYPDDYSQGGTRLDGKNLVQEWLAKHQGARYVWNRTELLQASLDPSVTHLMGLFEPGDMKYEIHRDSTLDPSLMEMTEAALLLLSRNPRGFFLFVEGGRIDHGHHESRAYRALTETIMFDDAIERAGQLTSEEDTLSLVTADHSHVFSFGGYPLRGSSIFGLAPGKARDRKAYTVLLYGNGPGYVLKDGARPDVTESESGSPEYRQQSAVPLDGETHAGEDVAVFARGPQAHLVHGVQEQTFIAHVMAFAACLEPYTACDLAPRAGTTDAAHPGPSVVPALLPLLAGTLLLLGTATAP
Activity calls are given as the source filed them. How the calls were made is not given here.
Result category, one only: Y (active), N (inactive)

COMPOUND | GROUP LABEL
CC(C(=O)Nc1ccc(C(=O)O)c(O)c1)N1C(=O)/C(=C\c2ccco2)SC1=S (stereo not given) | Y
COc1ccc(CNC(=O)CSc2sc3c(O)cc(=O)[nH]c3c2C#N)cc1 | N
O=C(NNC(=O)c1cc(O)c(O)c(O)c1)NC1CCCCC1 | Y
O=C(N/N=C/c1ccco1)c1cc(O)c(O)c(O)c1 | N

Task: What did the test return for CCOC(=O)N1CCC(NC(=O)CSc2sc3c(O)cc(=O)[nH]c3c2C#N)CC1 ?
Result: N

###

target: UniProt:P10696; assay: effect of analogs on PLAP-like activity, SAR follow-up, selectivity assay for mouse IAP activator project, biochemical, human placental-like ALPPL2 isozyme (AID 493139); settings: purified human placental-like alkaline phosphatase, enzymatic activity
The source made the active and inactive calls. The rule behind the calls is not given here.
Result category, one only: 1 (yes) for active, 0 (no) for inactive

COMPOUND | GROUP LABEL
O=C(CN1C(=O)/C(=C/c2ccco2)SC1=S)Nc1ccc(C(=O)O)c(O)c1 | 1 (yes)

Task: What did the test return for CCc1nnc(NC(=O)CSc2sc3c(O)cc(=O)[nH]c3c2C#N)s1 ?
Result: 0 (no)

Task: What did the test return for COc1cc(C(=O)NNC(=S)NC(=O)c2ccc(Cl)cc2)cc(OC)c1OC ?
Result: 1 (yes)

Task: What did the test return for O=[N+]([O-])c1ccc(NC(=S)NCCC(c2ccccc2)c2ccccc2)cc1 ?
Result: 0 (no)

Task: What did the test return for CC(C(=O)Nc1ccccc1C(=O)O)N1C(=O)/C(=C\c2ccco2)SC1=S (stereo not given) ?
Result: 0 (no)

###

molecular target: UniProt:P10696; experiment: effect of analogs on PLAP-like activity, SAR follow-up, selectivity assay for mouse IAP activator project, biochemical, human placental-like ALPPL2 isozyme (AID 493139); conditions: purified human placental-like alkaline phosphatase, enzymatic activity
The source made the active and inactive calls. No rule for the calls is given here.
Result category, one only: true (1) for active, false (0) for inactive

COMPOUND | TESTED SYSTEM | GROUP LABEL
COc1cccc(CNC(=O)CCNS(=O)(=O)c2ccc3[nH]c(=O)oc3c2)c1 | UniProt:P10696 | false (0)
COc1ccc(OC)c(NC(=O)CSc2sc3c(O)cc(=O)[nH]c3c2C#N)c1 | UniProt:P10696 | false (0)
O=C(CN1C(=O)/C(=C\c2ccco2)SC1=S)Nc1cccc(C(=O)O)c1 | UniProt:P10696 | false (0)
O=C(c1ccco1)N1CCN(S(=O)(=O)c2ccc3[nH]c(=O)oc3c2)CC1 | UniProt:P10696 | false (0)
CC(C)C(C(=O)NC1CCS(=O)(=O)C1)N1C(=O)/C(=C\c2ccco2)SC1=S (stereo unspecified) | UniProt:P10696 | false (0)

Task: What did the test return for CC(C(=O)N(C)C1CCS(=O)(=O)C1)N1C(=O)/C(=C/c2ccco2)SC1=S (stereo unspecified) ?
Result: false (0)

Task: What did the test return for Cc1cc(NC(=O)CSc2sc3c(O)cc(=O)[nH]c3c2C#N)ccc1Br ?
Result: false (0)

Task: What did the test return for O=C(CCN1C(=O)/C(=C/c2ccco2)SC1=S)Nc1ccc(C(=O)O)c(O)c1 ?
Result: false (0)

Task: What did the test return for COc1ccc(OC)c(NC(=O)CCNS(=O)(=O)c2ccc3[nH]c(=O)oc3c2)c1 ?
Result: false (0)
